Test system: Entamoeba histolytica
ASSAY_METHOD_TEXT: In vitro antiamoebic activity was evaluated against HK-9 strain of Entamoeba histolytica
Assay type: functional, organism-based
Define the label as rule met when IC50 is strictly less than 0.6 µg/mL and as rule not met in all remaining cases.

S=C(N/N=C/c1cccs1)NC1CCCC1
rule not met
S=C(N/N=C/c1cccs1)NC1CCCCCCC1
rule met
Cc1ncc([N+](=O)[O-])n1CCO
rule met

Req: In the record for "S=C(N/N=C/c1cccs1)NC1CCCCC1" , is IC50 less than 0.6 µg/mL?
Resp: rule met

Req: # strict comparison: is reported IC50 < 0.6 µg/mL? input = "S=C(N/N=C/c1cccs1)N1CCCCCC1"
Resp: rule not met
